- assay target: HLA-A3 on CFPAC parental cells (Homo sapiens, HLA-A3 serotype, allele …, strain)

# binder, binding result
records = [
    ("HLAA3_4 (VHH) VHH: EVQLVESGGGLVQPGGSLRLSCAASGFNIYSYAMHWVRQAPGKGLEWVASFVPGSYATYYADSVKGRFTISADTSKNTAYLQMNSLRAEDTAVYYCSRGYYASYYFDVWGQGTLVTVSS", "binds"),
    ("HLAA3_10 (VHH) VHH: EVQLVESGGGLVQPGGSLRLSCAASGFNVYYSGMHWVRQAPGKGLEWVAKISPDSGSTYYADSVKGRFTISADTSKNTAYLQMNSLRAEDTAVYYCSRDMYSVRSAMDYWGQGTLVTVSS", "binds"),
]
